System: L1210 leukemia ip in BDF1 mice, survival T/C
PROCEDURE_SUMMARY: NCI In Vivo Anticancer Drug Screen. Data for tumor model L1210 Leukemia (intraperitoneal) in B6D2F1 (BDF1) mice
MEASUREMENT_CONTEXT: endpoint: mean survival time; dose: 25.0 mg/kg/injection; schedule: Q01DX009 (ip); vehicle: saline with Tween-80; higher = longer survival
Procedure: The antitumor activity of compounds was measured in mice bearing transplantable tumors. Survival or tumor size were measured and the results are expressed as the measurement made in the treated group (T) divided by the measurement made in the vehicle treated control group (C). The tumor model used in this assay is L1210 Leukemia (intraperitoneal) in B6D2F1 (BDF1) mice
Inconclusive results and toxic doses are left out.
Entries and their T/C values follow.

Asked: # input compound: `Cc1cccc(Cl)c1NC1=NCCO1` ; wanted: its T/C
Given back: 100 % of control

Asked: # input compound: `Clc1nc2ccccc2nc1CI` ; wanted: its T/C
Given back: 89 % of control

Asked: # input compound: `CCOC(=O)C(=CNc1ccc(OC)cc1[N+](=O)[O-])C(=O)OCC` ; wanted: its T/C
Given back: 90 % of control

Asked: # input compound: `Nc1nc(N)nc(-c2ccccn2)n1` ; wanted: its T/C
Given back: 92 % of control

Asked: # input compound: `CCOC(=O)c1ccc(NC(=O)Nc2ccc(NC(C)=O)cc2)cc1` ; wanted: its T/C
Given back: 89 % of control

Asked: # input compound: `CN(C)N=Nc1ccc(C(=O)O)cc1` ; wanted: its T/C
Given back: 108 % of control

Asked: # input compound: `CC(=O)Oc1cccc(OC(=O)Nc2ccccc2F)c1` ; wanted: its T/C
Given back: 103 % of control
